- Tested on: Echinochloa crus-galli
- Assay details: Pre-emergence herbicidal effect
- Format: in vivo
- Condition details: 80 g/ha, visual score after 3 weeks vs untreated controls
- Description: Seeds of monocotyledonous and dicotyledonous weed plants and crop plants are laid out in sandy loam soil in wood-fiber pots and covered with soil. […] The damage to the test plants is scored visually after a test period of 3 weeks by comparison with untreated controls (herbicidal activity in percent (%): 100% activity=the plants have died, 0% activity=like control plants).
Reported Pre-emergence action ECHCG (herbicidal activity in percent) values follow for various molecules
Give just the number in %; leave the unit off.

Worked cases, Pre-emergence action ECHCG (herbicidal activity in percent) given:
- CC#Cc1cc(Br)c(C2=C(OC(=O)OC)C3(CCOCC3)NC2=O)c(OC)c1: 80
- CC#Cc1cc(Br)c(C2=C(O)C3(CCC(OCCOC)CC3)NC2=O)c(OC)c1 (stereo not drawn): 100
- CC#Cc1cc(Br)c(C2=C(OC(=O)OC)C3(CCC(OC(C)C)CC3)NC2=O)c(OC)c1 (stereo not drawn): 100
- CC#Cc1cc(Br)c(C2=C(O)C3(CCC(OC(C)C)CC3)NC2=O)c(OC)c1 (stereo not drawn): 90
- CC#Cc1cc(Br)c(C2=C(O)C3(CCOCC3)NC2=O)c(OC)c1: 100
- CC#Cc1cc(Br)c(C2=C(OC(C)=O)C3(CCC(OCCOC)CC3)NC2=O)c(OC)c1 (stereo not drawn): 100

*Q* Which Pre-emergence action ECHCG (herbicidal activity in percent) is reported for this molecule? C=CCOC1CCC2(CC1)NC(=O)C(c1c(Br)cc(C#CC)cc1OC)=C2OC(=O)OC (stereo not drawn)
*A* 100

*Q* Try this molecule too: C=CCOC1CCC2(CC1)NC(=O)C(c1c(Br)cc(C#CC)cc1OC)=C2OC(=O)OCC (stereo not drawn)
*A* 100

*Q* Try this molecule too: CC#Cc1cc(Br)c(C2=C(OC(=O)OCC)C3(CCC4(CC3)OCCO4)NC2=O)c(OC)c1
*A* 100
